System: RXF 393 renal
Run Description: NCI tumour cell line growth inhibition, 48 h
Could you label it MET if measured TGI is 30 µM or higher, and NOT MET otherwise?

compound="CCOC(=O)C1(C/C=C/CBr)Cc2ccccc2C1=O (stereo not given)" group="NOT MET"
compound=C=CC(=O)Nc1cc(Nc2ncc(C(=O)OC(C)C)c(-c3cn(C)c4ccccc34)n2)c(OC)cc1N(C)CCN(C)C group="NOT MET"
compound=Cc1c(C(=O)CC(=O)C(=O)Nc2ccccc2C(F)(F)F)[n+](=O)c2ccccc2n1[O-] group=MET
compound=O=C(Nc1ccc(F)cc1)Nc1ccc(Cl)c([N+](=O)[O-])c1 group="NOT MET"
compound=O=C1CCCc2cc3c(cc21)CC1(Cc2ccccc2C1)C3 group=MET
compound=COc1cccc(-c2cc(-c3cccc(NS(C)(=O)=O)c3)nc(N)c2C#N)c1O group="NOT MET"
compound="COc1cc(C2c3cc4c(cc3OC(N3CCOCC3)C2C)OCO4)ccc1O (stereo not given)" group="NOT MET"
compound="CC(C)(C)OC(=O)NCCCCC1NC(=O)[C@@H]2Cc3c([nH]c4ccccc34)C(C3CCCCC3)N2C1=O (stereo not given in full)" group="NOT MET"

* * *

System: NCI/ADR-RES ovarian
Run Description: NCI tumour cell line growth inhibition, 48 h
Reported Metric: TGI (µM)

compound=Cc1cn2c(/C=N/N=C(N)N)c(-c3cccc([N+](=O)[O-])c3)nc2s1 relation_sign=> measured_value=100
compound=CCN1CCN(Cc2ccc(NC(=O)c3cccc(C#Cc4cccc5[nH]nc(N)c45)c3)cc2C(F)(F)F)CC1 relation_sign== measured_value=5.21
compound="OC1CSSC1Cn1cnc2c(Nc3ccc(OCc4cccc(F)c4)c(Cl)c3)ncnc21 (configuration not stated)" relation_sign== measured_value=12.3
compound="CC1CCc2nc[nH]c(=O)c21 (configuration not stated)" relation_sign=> measured_value=100
compound=Cc1cnc(NCCCN(C)C)c2c1[nH]c1ccc3cc(O)ccc3c12 relation_sign== measured_value=20.1
compound=CCN(CC)N=Nc1c(C(N)=O)n[nH]c1C relation_sign=> measured_value=100
compound=CO/C(=N\N=C\c1ccc(C(F)(F)F)cc1)c1ccncc1 relation_sign=> measured_value=10

* * *

The entries below come with measured TGI values attached.
System: NCI-H23 lung
Run Description: NCI tumour cell line growth inhibition, 48 h
*1 amine or outer side, *2 acyl side, *3 side chain or, on linkers, in order; H or OH if unused. Where a SMILES comes first, the peptide text is derived from it. Bridges are numbered along the chain shown (N, C = ends). [ ]: non-standard residue; d: D form. The star is where a group is joined. Phe(3,5-F2) = N[C@@H](Cc1cc(F)cc(F)c1)C(=O)O; Pro(4R-Me) = C[C@H]1CN[C@H](C(=O)O)C1; aThr = C[C@H](O)[C@H](N)C(=O)O; Pip = O=C(O)[C@@H]1CCCCN1; X10 = Fc1cc(C2CC2)ccc1N*; CO = O=C([*:1])[*:2]
Reported Metric: TGI

compound=Nn1c(-c2ccccc2)nn(C(=O)c2ccccc2)c1=O reported_metric=TGI measured_value="> 100 µM"
compound=COc1cccc(-c2cc(-c3cccc(NS(C)(=O)=O)c3)nc(N)c2C#N)c1O reported_metric=TGI measured_value="> 100 µM"
compound="COc1cc(C2c3cc4c(cc3OC(N3CCOCC3)C2C)OCO4)ccc1O (centres undefined)" reported_metric=TGI measured_value="> 95.7 µM"
compound=c1ccc(-c2nc(-c3ccccc3SSc3ccccc3-c3nc(-c4ccccc4)nn3-c3ccccc3)n(-c3ccccc3)n2)cc1 reported_metric=TGI measured_value="> 100 µM"
compound=Nc1nc(SCCc2ccccc2)c2[nH]cnc2n1 reported_metric=TGI measured_value="> 100 µM"
compound=O=c1c2cc([N+](=O)[O-])cnc2sn1-c1ccc([N+](=O)[O-])cc1 reported_metric=TGI measured_value="> 100 µM"
compound="C[C@@H]1C[C@H]2C(=O)O[C@@H](C)[C@H](NC(=O)[C@H](Cc3cc(F)cc(F)c3)NC(=O)Nc3ccc(C4CC4)cc3F)C(=O)N3CCC[C@H]3C(=O)N3CCCC[C@H]3C(=O)N[C@@H](C)C(=O)N2C1 ({X10-CO}-[Phe(3,5-F2)][aThr]P[Pip]A[Pro(4R-Me)]; ester 2-C)" reported_metric=TGI measured_value="35.3 µM"
compound=COc1ccc2c(c1)sc1nc(-c3ccccc3)c(-c3cccc4ccccc34)n12 reported_metric=TGI measured_value="> 100 µM"
compound="COC(=O)c1c(C)cccc1C1CN=NC12Cc1ccc(C)cc1C2=O (centres undefined)" reported_metric=TGI measured_value="> 100 µM"

* * *

System: SF-268 CNS
Run Description: NCI tumour cell line growth inhibition, 48 h
Listing: TGI of selected compounds
Reported Metric: TGI

compound=Cc1c(C(=O)C/C(=N/NC(=O)c2ccccc2O)C(=O)Nc2ccccc2C(C)C)[n+](=O)c2ccccc2n1[O-] measured_value="> 100 µM"
compound=Cc1ccccc1C(=O)N1CCc2c([nH]c3ccccc23)C1 measured_value="> 100 µM"
compound=Cc1ccsc1C(=S)Nc1ccc(Cl)c(/C=N/OC(C)(C)C)c1 measured_value="> 100 µM"
compound=COc1ccc2c(c1)/C(=C/CCN(C)C)c1ccccc1S2 measured_value="> 100 µM"
compound=CC(=O)[CH-]C(=O)c1ccccc1.CC(=O)[CH-]C(=O)c1ccccc1.CN(C)c1ccc([O-])cc1.CN(C)c1ccc([O-])cc1.Cl.[Ti+4] measured_value="> 31.6 µM"
compound="Fc1[nH]nc2ccc([C@@H]3Nc4ccc5[nH]ncc5c4[C@H]4C5CCC(C5)[C@@H]34)cc12 (some centres undefined)" measured_value="19.8 µM"
compound=Nc1ccccc1C#C/C=C\C#Cc1ccccc1OC(F)(F)F measured_value="32 µM"
compound=O=c1c2cc([N+](=O)[O-])cnc2sn1-c1ccc([N+](=O)[O-])cc1 measured_value="67.6 µM"
compound=Cc1c(C(=O)CC(=O)C(=O)Nc2ccccc2C(F)(F)F)[n+](=O)c2ccccc2n1[O-] measured_value="69 µM"

* * *

System: NCI-H226 lung
Run Description: NCI tumour cell line growth inhibition, 48 h
Reported Metric: GI50

compound="COc1cc2c(cc1OCCCCN1CCN(CC(=O)Nc3ccc(Cl)cc3C(=O)c3ccccc3Cl)CC1)N=CC1CCCN1C2=O (stereo not given)" reported_metric=GI50 measured_value="0.483 µM"
compound=OCc1cc2ccccc2c2c3c(ccc12)OCO3 reported_metric=GI50 measured_value="23.7 µM"
compound="C=C(C)C(OC)C(O)CC1(C)CC(O)CC(C)(C2CCC3OC(C4(C)CCC(Br)C(C)(C)O4)CCC3(C)O2)O1 (stereo not given)" reported_metric=GI50 measured_value="18.8 µM"
compound="Fc1[nH]nc2ccc([C@@H]3Nc4ccc5[nH]ncc5c4[C@H]4C5CCC(C5)[C@@H]34)cc12 (stereo not given in full)" reported_metric=GI50 measured_value="3.54 µM"
compound=Cc1ccc(CN2CCC(C(=O)Nc3ccc(-c4cc5ccccc5[nH]4)cc3)CC2)o1 reported_metric=GI50 measured_value="> 100 µM"

* * *

System: DU-145 prostate
Run Description: NCI tumour cell line growth inhibition, 48 h
Reported Metric: GI50

compound=O=C1NC(=NCCc2cccc(F)c2)S/C1=C\c1ccc2ncccc2c1 measured_value="10.1 µM"
compound="COC1/C=C/OC2(C)Oc3c(C)c(O)c4c(O)c(c(/C=N/Nc5ccc([N+](=O)[O-])cc5[N+](=O)[O-])c(O)c4c3C2=O)NC(=O)C(C)=C/C=C/C(C)C(O)C(C)C(O)C(C)C(OC(C)=O)C1C (centres undefined)" measured_value="2.55 µM"
compound=OCc1cc2ccccc2c2c3c(ccc12)OCO3 measured_value="44 µM"
compound=CCC(=O)[C@H](C)[C@@H](OC(=O)[C@H](C)CC)[C@H](C)[C@H]1OC(CC)=C(C)C(=O)[C@@H]1C measured_value="23.4 µM"

* * *

Recorded measurements of TGI, one per entry
Test system: LXFL 529 NSCLC
Run Description: NCI tumour cell line growth inhibition, 48 h
Reported Metric: TGI

compound=COc1cc2ccnc([C@@H](OC(=O)c3ccccc3)c3ccc(OC)c(OC)c3OC)c2cc1OC measured_value="> 100 µM"
compound="CCCC1C(=O)CCc2c(OC)ccc(OC)c21 (centres undefined)" measured_value="> 100 µM"
compound="CC1(C(=O)O)CCC[C@@]2(C)C1CC[C@@]1(C)c3cocc3CCC21 (some centres undefined)" measured_value="> 100 µM"
compound=Cc1cnc(NCCCN(C)C)c2c1[nH]c1ccc3cc(O)ccc3c12 measured_value="1.76 µM"
compound=CN(C)N=Nc1ccc(C(N)=O)cc1 measured_value="> 100 µM"
compound=CC(=O)[CH-]C(=O)c1ccccc1.CC(=O)[CH-]C(=O)c1ccccc1.CN(C)c1ccc([O-])cc1.CN(C)c1ccc([O-])cc1.Cl.[Ti+4] measured_value="> 31.6 µM"
compound=COc1cc2cc(OC)c3cc4c(cc3c2c(OC)c1OC)OCO4 measured_value="> 100 µM"
compound=COC(=O)/C(C#N)=C1\NC(=O)c2ccccc21 measured_value="> 100 µM"
compound=NC(=O)NO.O.O.O.O.O.O.O.O.O.O.O.[Ge].[Ge].[Ge].[Ge].[Ge].[O]=[Ge].[O]=[Ge].[O]=[Ge].[O]=[Ge].[O]=[Ge][OH] measured_value="> 100 µM"
